# System: Nucleic Acid
# protocolDetails: Antitumor potency on human ovarian 2780 cell lines.
# Type: functional
pIC50: −log10 of the molar value.
Outcome: 1.0 for pIC50 of at least 8; 0.0 for anything lower.

Q: Please tell me: is the compound CO[C@@]12C(COC(N)=O)c3c(O)c(N=C4C=CC(=N)C=C4)c(C)c(O)c3N1CC1NC12 (stereo partly drawn) at or over 8 in terms of pIC50?
Result: 0.0

Q: Please do the same for CO[C@@]12C(COC(N)=O)C3=C(C(=O)C(C)=C(Nc4ccc(F)cc4)C3=O)N1CC1NC12 (stereo partly drawn) as well.
Result: 1.0

Q: Entry to check: CO[C@@]12C(COC(N)=O)C3=C(C(=O)C(C)=C(Nc4cccc(I)c4)C3=O)N1CC1NC12 (stereo partly drawn)
Result: 1.0

Further cases:
Q: # check: pIC50 of CO[C@@]12C(COC(N)=O)C3=C(C(=O)C(C)=C(Nc4nc(C)cs4)C3=O)N1CC1NC12 (stereo partly drawn) is greater than or equal to 8
Result: 1.0

Q: What about this compound? CO[C@@]12C(COC(N)=O)C3=C(C(=O)C(C)=C(NCCc4ccco4)C3=O)N1CC1NC12 (stereo partly drawn)
Result: 0.0

Q: Note, next up: CO[C@@]12C(COC(N)=O)C3=C(C(=O)C(C)=C(Nc4ccc(I)cc4)C3=O)N1CC1NC12 (stereo partly drawn)
Result: 1.0

Q: And for CO[C@@]12C(COC(N)=O)C3=C(C(=O)C(C)=C(NCCCO)C3=O)N1CC1NC12 (stereo partly drawn) ?
Result: 0.0

---

# IC50 listing for each entry below
# Tested on: Nucleic Acid
# protocolDetails: Antitumor potency on human ovarian 2780 cell lines.
# Assay type: functional
Please state the figure in nM; there is no need to write the unit.

Worked set:
Q: # input molecule: CO[C@@]12C(COC(N)=O)C3=C(C(=O)C(C)=C(OCCOCCO)C3=O)N1CC1NC12 (some centres undefined) ; wanted: its IC50
Result: 36.6

Q: Please answer likewise for CO[C@@]12C(COC(N)=O)C3=C(C(=O)C(C)=C(OCc4ccccc4)C3=O)N1CC1NC12 (some centres undefined)
Result: 0.26

Next:
Q: I'd like to know its IC50. The molecule in question is COC1=C(C)C(=O)C2=C(C1=O)[C@@H](COC(N)=O)[C@@]1(OC)[C@H]3N[C@H]3CN21 [MITOMYCIN A]
Result: 0.22

Q: Moving on to the next molecule: CO[C@@]12C(COC(N)=O)C3=C(C(=O)C(C)=C(NCCc4ccccn4)C3=O)N1CC1NC12 (some centres undefined)
Result: 77.4

---

# Tested on: Nucleic Acid
# protocolDetails: Antitumor potency on human colon WIDR cell lines.
# Type: functional, cell-based
quantityMeasured: IC50 (nM)
# value in nM; strip the unit string

Record excerpt, results attached:
Q: Entry under review: CO[C@@]12C(COC(N)=O)C3=C(C(=O)C(C)=C(Nc4ccccc4)C3=O)N1CC1NC12 (some centres undefined) . Reported IC50?
Result: 1.09

Q: Another compound to check: CO[C@@]12C(COC(N)=O)C3=C(C(=O)C(C)=C(OCC4CC4)C3=O)N1CC1NC12 (some centres undefined)
Result: 0.16

Further cases:
Q: Field request: IC50 | item: CO[C@@]12C(COC(N)=O)C3=C(C(=O)C(C)=C(Nc4ccc5[nH]ccc5c4)C3=O)N1CC1NC12 (some centres undefined)
Result: 1.07

Q: Cool, now CO[C@@]12C(COC(N)=O)C3=C(C(=O)C(C)=C(NCCCO)C3=O)N1CC1NC12 (some centres undefined)
Result: 102

Q: # iterate: CO[C@@]12C(COC(N)=O)C3=C(C(=O)C(C)=C(Nc4cccc(I)c4)C3=O)N1CC1NC12 (some centres undefined)
Result: 0.21

Q: Next entry: CO[C@@]12C(COC(N)=O)C3=C(C(=O)C(C)=C(OCCOCCO)C3=O)N1CC1NC12 (some centres undefined)
Result: 25.8

Q: Also need CO[C@@]12C(COC(N)=O)c3c(O)c(N=C4C=CC(=O)C=C4)c(C)c(O)c3N1CC1NC12 (some centres undefined) , thanks.
Result: 6.3

Q: Next entry: CO[C@@]12C(COC(N)=O)C3=C(C(=O)C(C)=C(Nc4ccc(F)cc4)C3=O)N1CC1NC12 (some centres undefined)
Result: 1.63

Q: Now the same for CO[C@@]12C(COC(N)=O)C3=C(C(=O)C(C)=C(OCc4ccccc4)C3=O)N1CC1NC12 (some centres undefined)
Result: 0.13

---

# Tested on: Nucleic Acid
# protocolDetails: Antitumor potency on human colon WIDR cell lines.
# Format: functional, cell-based
Listing of recorded pIC50 by entry.
Scale for pIC50: -log10 of concentration given in mol/L; no unit attached.

Answered examples (3):
Q: May I ask what pIC50 has been recorded for CO[C@@]12C(COC(N)=O)C3=C(C(=O)C(C)=C(OCCSc4ccccc4)C3=O)N1CC1NC12 (stereo not given in full) ?
Result: 9.82

Q: Input CO[C@@]12[C@H](COC(N)=O)C3=C(C(=O)C(C)=C(N)C3=O)N1C[C@@H]1N[C@@H]12 [MITOMYCIN]
Result: 7.89

Q: Okay, and COC1=C(C)C(=O)C2=C(C1=O)[C@@H](COC(N)=O)[C@@]1(OC)[C@H]3N[C@H]3CN21 [MITOMYCIN A] ?
Result: 10.28

Now for another entry.
Q: Query: pIC50; subject: CO[C@@]12C(COC(N)=O)C3=C(C(=O)C(C)=C(Nc4ccc(I)cc4)C3=O)N1CC1NC12 (stereo not given in full)
Result: 9.20

---

# System: Nucleic Acid
# protocolDetails: Antitumor potency on human breast MCF-7 cell lines.
# Assay type: functional, cell-based
# measurementConditions: MCF7
quantityMeasured: pIC50
pIC50 field: float, defined as -log10 of concentration (mol/L).

For orientation, consider the following solved cases.
Q: Query (compound): CO[C@@]12C(COC(N)=O)C3=C(C(=O)C(C)=C(Nc4cccc(I)c4)C3=O)N1CC1NC12 (some centres not stated) ; field requested: pIC50
Result: 8.73

Q: Also need CO[C@@]12C(COC(N)=O)C3=C(C(=O)C(C)=C(Nc4ccc5[nH]ccc5c4)C3=O)N1CC1NC12 (some centres not stated) , thanks.
Result: 8.96

Others:
Q: Any idea what its pIC50 is? The compound is CO[C@@]12C(COC(N)=O)C3=C(C(=O)C(C)=C(OCCOc4ccccc4)C3=O)N1CC1NC12 (some centres not stated)
Result: 9.14

Q: Another compound: CO[C@@]12C(COC(N)=O)C3=C(C(=O)C(C)=C(OCc4ccccc4)C3=O)N1CC1NC12 (some centres not stated)
Result: 8.84

Q: Do the same for CO[C@@]12C(COC(N)=O)C3=C(C(=O)C(C)=C(Nc4ccccc4)C3=O)N1CC1NC12 (some centres not stated) please
Result: 8.88

Q: Lookup CO[C@@]12C(COC(N)=O)C3=C(C(=O)C(C)=C(OCCSc4ccccc4)C3=O)N1CC1NC12 (some centres not stated)
Result: 8.85

Q: Also CO[C@@]12C(COC(N)=O)c3c(O)c(N=C4C=CC(=N)C=C4)c(C)c(O)c3N1CC1NC12 (some centres not stated) , if possible.
Result: 7.88

Q: Could you do the same for CO[C@@]12C(COC(N)=O)c3c(O)c(/N=C4\C=CC(=O)C(I)=C4)c(C)c(O)c3N1CC1NC12 (some centres not stated) , please?
Result: 7.79

Q: Next entry: CO[C@@]12C(COC(N)=O)C3=C(C(=O)C(C)=C(Nc4ccc([N+](=O)[O-])cc4)C3=O)N1CC1NC12 (some centres not stated)
Result: 8.82

Q: // query: CO[C@@]12C(COC(N)=O)C3=C(C(=O)C(C)=C(OC4CC4)C3=O)N1CC1NC12 (some centres not stated)
Result: 8.95

Q: Try this compound next: CO[C@@]12C(COC(N)=O)c3c(O)c(N=C4C=CC(=O)C=C4)c(C)c(O)c3N1CC1NC12 (some centres not stated)
Result: 7.77

Q: # iterate: `COC1=C(C)C(=O)C2=C(C1=O)[C@@H](COC(N)=O)[C@@]1(OC)[C@H]3N[C@H]3CN21`
Result: 9.20

---

# Test system: Nucleic Acid
# protocolDetails: Antitumor potency on human ovarian 2780 cell lines.
# Type: functional
Measured IC50 of individual entries
Numbers only here, please. The scale is nM.

Q: // lookup IC50 for CO[C@@]12C(COC(N)=O)C3=C(C(=O)C(C)=C(OCCOc4ccccc4)C3=O)N1CC1NC12 (stereo partly specified)
Result: 0.16

Q: Consider next the molecule CO[C@@]12C(COC(N)=O)C3=C(C(=O)C(C)=C(OC4CC4)C3=O)N1CC1NC12 (stereo partly specified) in the same way.
Result: 0.56

Q: What about COCCOCCOC1=C(C)C(=O)C2=C(C1=O)C(COC(N)=O)[C@@]1(OC)C3NC3CN21 (stereo partly specified) ?
Result: 4.57

Q: Next molecule: CO[C@@]12C(COC(N)=O)c3c(O)c(N=C4C=CC(=O)C=C4)c(C)c(O)c3N1CC1NC12 (stereo partly specified)
Result: 16.4

Q: Request: CO[C@@]12C(COC(N)=O)c3c(O)c(/N=C4\C=CC(=O)C(I)=C4)c(C)c(O)c3N1CC1NC12 (stereo partly specified)
Result: 29

Q: Request: CO[C@@]12C(COC(N)=O)C3=C(C(=O)C(C)=C(Nc4ccccc4)C3=O)N1CC1NC12 (stereo partly specified)
Result: 2.6
